Target: Recombinant PRC2 (EZH2-Y641F) (Homo sapiens (Human), UniProt Q15910, Y641F)
Sequence (Q15910 whole entry Y641F): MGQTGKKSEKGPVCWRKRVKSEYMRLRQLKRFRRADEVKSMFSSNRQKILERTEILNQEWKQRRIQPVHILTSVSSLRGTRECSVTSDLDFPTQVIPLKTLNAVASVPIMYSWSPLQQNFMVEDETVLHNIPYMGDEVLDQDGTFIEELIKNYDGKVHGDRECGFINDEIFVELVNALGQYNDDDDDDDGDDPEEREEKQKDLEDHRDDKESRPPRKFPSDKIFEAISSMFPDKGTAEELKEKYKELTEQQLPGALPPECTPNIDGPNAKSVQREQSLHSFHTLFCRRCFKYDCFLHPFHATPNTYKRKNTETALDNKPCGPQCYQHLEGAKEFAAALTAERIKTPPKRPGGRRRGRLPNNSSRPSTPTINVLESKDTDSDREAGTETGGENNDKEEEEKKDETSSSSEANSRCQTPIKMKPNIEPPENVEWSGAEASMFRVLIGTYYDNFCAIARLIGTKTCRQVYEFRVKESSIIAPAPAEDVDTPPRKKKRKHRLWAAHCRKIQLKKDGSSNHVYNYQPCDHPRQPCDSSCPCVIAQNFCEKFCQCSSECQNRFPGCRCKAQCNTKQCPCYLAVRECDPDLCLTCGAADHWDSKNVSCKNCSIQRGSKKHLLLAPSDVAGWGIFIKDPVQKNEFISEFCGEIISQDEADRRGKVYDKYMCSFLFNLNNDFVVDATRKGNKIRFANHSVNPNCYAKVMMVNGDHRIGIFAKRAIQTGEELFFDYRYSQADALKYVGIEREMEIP
Sequence (O75530 whole entry partner): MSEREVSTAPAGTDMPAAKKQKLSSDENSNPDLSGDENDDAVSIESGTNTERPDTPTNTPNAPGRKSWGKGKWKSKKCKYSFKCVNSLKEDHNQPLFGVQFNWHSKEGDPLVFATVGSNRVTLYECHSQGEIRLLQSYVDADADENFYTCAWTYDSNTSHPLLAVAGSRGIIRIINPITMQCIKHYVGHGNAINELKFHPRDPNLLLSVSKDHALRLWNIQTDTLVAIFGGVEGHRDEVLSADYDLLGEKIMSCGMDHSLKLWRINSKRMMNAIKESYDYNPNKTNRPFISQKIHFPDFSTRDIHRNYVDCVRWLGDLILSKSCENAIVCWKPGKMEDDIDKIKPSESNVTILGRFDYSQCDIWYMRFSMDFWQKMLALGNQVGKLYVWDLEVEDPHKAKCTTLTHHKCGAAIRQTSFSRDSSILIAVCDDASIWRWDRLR
Sequence (Q15022 whole entry partner): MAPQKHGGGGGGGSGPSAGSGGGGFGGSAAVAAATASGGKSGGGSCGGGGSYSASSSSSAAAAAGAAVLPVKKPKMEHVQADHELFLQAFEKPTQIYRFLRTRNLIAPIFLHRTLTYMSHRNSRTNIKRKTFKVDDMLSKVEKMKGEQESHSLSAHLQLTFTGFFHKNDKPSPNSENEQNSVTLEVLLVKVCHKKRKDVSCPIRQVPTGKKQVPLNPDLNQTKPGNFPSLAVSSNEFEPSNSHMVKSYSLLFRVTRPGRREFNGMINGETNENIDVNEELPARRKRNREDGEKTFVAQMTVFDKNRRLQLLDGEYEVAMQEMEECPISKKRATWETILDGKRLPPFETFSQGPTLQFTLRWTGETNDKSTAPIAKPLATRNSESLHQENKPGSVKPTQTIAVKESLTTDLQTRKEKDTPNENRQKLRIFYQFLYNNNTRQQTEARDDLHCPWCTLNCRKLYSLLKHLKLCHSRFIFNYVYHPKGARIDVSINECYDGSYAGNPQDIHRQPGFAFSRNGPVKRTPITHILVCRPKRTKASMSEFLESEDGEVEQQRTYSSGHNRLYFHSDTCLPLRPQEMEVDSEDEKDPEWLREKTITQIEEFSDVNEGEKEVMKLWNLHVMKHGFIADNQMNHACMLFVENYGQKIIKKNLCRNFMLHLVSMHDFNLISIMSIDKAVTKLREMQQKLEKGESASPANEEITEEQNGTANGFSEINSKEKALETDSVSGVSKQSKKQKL
Sequence (Q09028 whole entry partner): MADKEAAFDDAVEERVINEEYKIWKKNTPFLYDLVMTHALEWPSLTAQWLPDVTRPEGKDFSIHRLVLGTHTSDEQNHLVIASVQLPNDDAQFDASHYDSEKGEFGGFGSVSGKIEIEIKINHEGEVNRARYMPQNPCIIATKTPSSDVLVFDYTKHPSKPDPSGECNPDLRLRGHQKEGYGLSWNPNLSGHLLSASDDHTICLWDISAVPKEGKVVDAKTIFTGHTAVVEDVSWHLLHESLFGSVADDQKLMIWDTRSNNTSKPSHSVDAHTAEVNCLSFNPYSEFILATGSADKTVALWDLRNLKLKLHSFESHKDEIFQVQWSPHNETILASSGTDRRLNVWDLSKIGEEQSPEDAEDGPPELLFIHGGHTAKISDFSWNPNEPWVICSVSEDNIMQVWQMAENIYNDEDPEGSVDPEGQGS
Sequence (Q6ZN18 whole entry partner): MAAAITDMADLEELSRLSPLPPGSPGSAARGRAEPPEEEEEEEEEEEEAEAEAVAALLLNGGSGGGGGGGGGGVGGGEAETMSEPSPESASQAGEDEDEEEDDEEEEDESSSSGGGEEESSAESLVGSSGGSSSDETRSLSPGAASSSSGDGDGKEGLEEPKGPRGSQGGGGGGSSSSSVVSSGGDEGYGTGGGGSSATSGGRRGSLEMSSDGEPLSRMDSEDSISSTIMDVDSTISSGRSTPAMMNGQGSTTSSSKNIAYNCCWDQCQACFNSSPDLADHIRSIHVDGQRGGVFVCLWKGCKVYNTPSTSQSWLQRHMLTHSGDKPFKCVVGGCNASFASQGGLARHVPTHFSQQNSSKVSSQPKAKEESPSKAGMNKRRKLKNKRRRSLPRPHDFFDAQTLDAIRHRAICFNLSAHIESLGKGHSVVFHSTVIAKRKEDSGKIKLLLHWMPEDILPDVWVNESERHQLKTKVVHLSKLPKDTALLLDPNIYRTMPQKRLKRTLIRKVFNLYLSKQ
Experiment: In vitro methyltransferase activity assay (LANCE Ultra)
Conditions: 2.5 μM SAM/250 nM H3(1-50)K27me1, 3 hours, room temperature
Hi there, I'd appreciate the recorded IC50 for every entry that follows.
Hi! Could you send only the number? It should be in µM, unit omitted.

**Q:** Value wanted: IC50 (Recombinant PRC2 (EZH2-Y641F) (Homo sapiens (Human), UniProt Q15910, Y641F)) of entry `CCc1c(C(=O)NCc2c(OC)cc(C)[nH]c2=O)cc2c(cnn2C)c1N(CC)C1CCOCC1`
**A:** 0.008

**Q:** Value wanted: IC50 (Recombinant PRC2 (EZH2-Y641F) (Homo sapiens (Human), UniProt Q15910, Y641F)) of entry CCN(c1c(C)c(C(=O)NCc2c(C)cc(C)[nH]c2=O)cc2c1cnn2C)C1CCC(N2CC(OCC(F)(F)F)C2)CC1 (stereo not shown)
**A:** 0.012

**Q:** Value wanted: IC50 (Recombinant PRC2 (EZH2-Y641F) (Homo sapiens (Human), UniProt Q15910, Y641F)) of entry CCc1c(C(=O)NCc2c(C)cc(C)[nH]c2=O)cc2c(cnn2C)c1N(CC)C1CCC(N2CC(C)C2)CC1 (stereo not shown)
**A:** 0.012

**Q:** Value wanted: IC50 (Recombinant PRC2 (EZH2-Y641F) (Homo sapiens (Human), UniProt Q15910, Y641F)) of entry `CCN(c1c(C)c(C(=O)NCc2c(C)cc(C)[nH]c2=O)cc2c1cnn2C(F)F)C1CCOCC1`
**A:** 0.061

**Q:** Value wanted: IC50 (Recombinant PRC2 (EZH2-Y641F) (Homo sapiens (Human), UniProt Q15910, Y641F)) of entry CCN(c1c(C)c(C(=O)NCc2c(C)cc(C)[nH]c2=O)cc2c1c(C)nn2C)C1CCC(N(C)C)CC1 (stereo not shown)
**A:** 0.253

**Q:** Value wanted: IC50 (Recombinant PRC2 (EZH2-Y641F) (Homo sapiens (Human), UniProt Q15910, Y641F)) of entry CCN(c1c(C)c(C(=O)NCc2c(C)cc(C)[nH]c2=O)cc2c1cnn2C)C1CCC(N2CC(F)(F)C2)CC1 (stereo not shown)
**A:** 0.015

**Q:** Value wanted: IC50 (Recombinant PRC2 (EZH2-Y641F) (Homo sapiens (Human), UniProt Q15910, Y641F)) of entry `CCN(c1c(C)c(C(=O)NCc2c(C)cc(C)[nH]c2=O)cc2c1cnn2C)C1CCN(CC(F)(F)F)CC1`
**A:** 0.053

Hey, just so you know, these numbers are from patent US11104664B2.
